Target: heterotrimeric G-protein alpha subunit Gαi1 in its inactive, GDP-complexed state (UniProt P63096 30-354)
Sequence (P63096 30-354, one chain of several): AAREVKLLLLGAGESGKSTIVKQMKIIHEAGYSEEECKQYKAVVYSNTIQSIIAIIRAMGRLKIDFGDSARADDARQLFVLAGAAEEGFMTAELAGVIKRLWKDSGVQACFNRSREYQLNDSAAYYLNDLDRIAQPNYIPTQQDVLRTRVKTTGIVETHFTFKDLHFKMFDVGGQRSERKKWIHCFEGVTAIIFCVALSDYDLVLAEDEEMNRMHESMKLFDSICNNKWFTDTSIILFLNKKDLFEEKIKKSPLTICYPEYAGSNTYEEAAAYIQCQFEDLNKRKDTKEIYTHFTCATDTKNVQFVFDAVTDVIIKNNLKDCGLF
Test: fluorescence polarisation
observable: pKd
Reminder that pKd is minus the log10 of a molar concentration.

stdin: May I ask what pKd has been recorded for DIEGLVELLNRVQSSGAHDQRGLLRKEDLVLPEFLQ [RGS14 GoLoco motif peptide (wildtype, 36 residues)] ?
stdout: 7.02
